experiment: gradient 5% acetonitrile 3 min, to 50% in 2 min, to 85% in 15 min, held 3 min, 100 µL/min; conditions: column: Zorbax Extend-C18 2.1 x 50 mm; eluents: water / acetonitrile, 0.1% formic acid
readout.label: RP-LC retention time (s)

[
  {
    "molecule": "COc1ccc2c(c1)[C@H]1OCCC[C@H]1C(c1cccc(O)c1)N2 (stereo not given in full)",
    "unit.of.measurement": "s",
    "RP-LC retention time": 793
  },
  {
    "molecule": "COc1ccc(NC(=O)N2CCCC(C)(C(=O)NCc3cccc(OC)c3)C2)cc1 (stereo not given)",
    "unit.of.measurement": "s",
    "RP-LC retention time": 792
  },
  {
    "molecule": "Cc1ccc(-c2noc(-c3ccc(NC(=O)c4ccc(Br)o4)cc3)n2)cc1",
    "unit.of.measurement": "s",
    "RP-LC retention time": 1290
  }
]

(A) Cc1onc2c(=O)n(CC(=O)N3CCN(c4ccccn4)CC3)nc(-c3ccc(Cl)cc3)c12
(B) COc1cccc(-c2noc(Cc3nnc(-c4cc(C)cc(C)c4)o3)n2)c1OC
Query: // compare measured RP-LC retention time between A and B ; output the lower one Kindly give the label for the entry you pick.
Result: A
